# Protocol Notes: in vivo
# Assay Conditions: rat, po, 20 mg/kg
Value Kind: AUC

AUC lookup needed for CC(C)Cc1ccc(C(C)C(=O)O)cc1 (stereo not shown) [IBU alone, ibuprofen] , thanks.
7190 ng·h/mL

###

# Protocol Notes: in vivo
# Assay Conditions: rat, po, 20 mg/kg
Value Kind: Cmax (ng/mL)
Reply with just the number (in ng/mL).

Cmax lookup needed for CC(C)Cc1ccc(C(C)C(=O)O)cc1 (stereo not shown) , thanks.
2280
